Source of measurements: paper PMC11480844

B1: H2-Kb / B15 (parent complex)
chain 1: QQQVRQSPQSLTVWEGETAILNCSYENSAFDYFPWYQQFPGEGPALLISILSVSDKKEDGRFTIFFNKREKKLSLHIADSQPGDSATYFCAASAASNNRLTLGKGTQVVVLP
chain 2: DSGVVQSPRHIIKEKGGRSVLTCIPISGHSNVVWYQQTLGKELKFLIQHYEKVERDKGFLPSRFSVQQFDDYHSEMNMSALELEDSAMYFCASSRRADAEQFFGPGTRLTVL
chain 3: not shown
chain 4: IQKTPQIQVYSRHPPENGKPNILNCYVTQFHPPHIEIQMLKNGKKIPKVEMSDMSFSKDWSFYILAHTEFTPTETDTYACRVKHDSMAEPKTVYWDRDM
chain 5: SIINFEKL

- Variants of: B1
- protocol notes: % of reporter cells activated (NFAT-GFP), raw; also: test concentration or dose not given here
Returns: string. Value is yes if measured ratio to parent is below 0.6, and no if it is greater than or equal to it.

mutant_code="chain 5 F5I" category=no
mutant_code="chain 5 L8S" category=no
mutant_code="chain 5 I2W" category=no
mutant_code="chain 5 L8Y" category=no
mutant_code="chain 5 I3Y" category=yes
mutant_code="chain 5 I2Q" category=no
mutant_code="chain 5 N4Y" category=yes
mutant_code="chain 5 E6N" category=yes
mutant_code="chain 5 E6K" category=no
mutant_code="chain 5 K7M" category=yes
mutant_code="chain 5 L8C" category=no
mutant_code="chain 5 N4S" category=yes
mutant_code="chain 5 L8V" category=no
mutant_code="chain 5 I3L" category=no
mutant_code="chain 5 E6I" category=yes
mutant_code="chain 5 I3P" category=no
mutant_code="chain 5 N4W" category=yes
mutant_code="chain 5 I2D" category=no
mutant_code="chain 5 K7D" category=yes
mutant_code="chain 5 N4L" category=yes
mutant_code="chain 5 F5Q" category=yes
mutant_code="chain 5 L8R" category=no
